These entries and their values trace back to PubChem BioAssay.

- assay overview: blockers of RIG-like receptor reporter activation – cell-based, Sendai virus stimulus, luciferase, 10K MLSCN set, TLR/RLR signaling modifier project, primary screen (AID 602276);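 further: firefly luciferase from ISG56 promoter only with Renilla not read in this screen; 0% = Sendai virus plus DMSO and 100% = medium plus DMSO without virus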
- condition set: HEK293 RL24 IRF3 luciferase reporter, at 10 µM, stronger effect = higher value
I'd be grateful if you could share measured inhibition for these entries.
Write the value in % as a bare number.

Challenge: May I ask what inhibition has been recorded for O=C(Nc1ccccc1C(=O)O)c1cccc(NC(=O)c2ccc(Br)o2)c1 ?
Response given: 6.35

Challenge: May I ask what inhibition has been recorded for Cc1c(C(=O)NCc2cccnc2)sc2ncn(CC(=O)N3CCCCC3C)c(=O)c12 (configuration not stated) ?
Response given: 18.5

Challenge: May I ask what inhibition has been recorded for OC(CN1CCCCC1)Cn1c(C(F)(F)F)nc2ccccc21 (configuration not stated) ?
Response given: 12.8

Challenge: May I ask what inhibition has been recorded for CCOC(=O)c1sc2nc(NC(=O)COc3ccccc3)sc2c1C ?
Response given: -24

Challenge: May I ask what inhibition has been recorded for CCCCCC1NC(=O)NC1CCCCCC(=O)O (configuration not stated) ?
Response given: 14.6

Challenge: May I ask what inhibition has been recorded for Cc1cccc(C)c1NC(=O)CC(NCc1ccco1)C(=O)O (configuration not stated) ?
Response given: 10.4

Challenge: May I ask what inhibition has been recorded for O=c1[nH]c2ccccc2nc1NCCN1CCOCC1 ?
Response given: 8.81

Challenge: May I ask what inhibition has been recorded for COCCCN1C(=O)C(=O)/C(=C(/O)c2ccc(OC)cc2)C1c1ccc(O)c(OC)c1 (configuration not stated) ?
Response given: 4.25

Challenge: May I ask what inhibition has been recorded for COc1cccc(C(=O)Nc2c(C(N)=O)oc3ccccc23)c1 ?
Response given: 10.6

Challenge: May I ask what inhibition has been recorded for O=C(O)c1ccc(NC(=O)c2cccs2)cc1 ?
Response given: 9.12

Challenge: May I ask what inhibition has been recorded for CCOC(=O)Nc1ccc2c(CN3C(=O)NC4(CCCC4)C3=O)cc(=O)oc2c1 ?
Response given: 0.299

Challenge: May I ask what inhibition has been recorded for FC(F)(F)c1ccc(Sc2nnc(-c3cccs3)n2CC2CCCO2)nc1 (configuration not stated) ?
Response given: 13.6

Challenge: May I ask what inhibition has been recorded for CCCOc1cccc(NC(=O)c2c(-c3ccccc3)noc2C)c1 ?
Response given: 12.6

Challenge: May I ask what inhibition has been recorded for CCOC(=O)C1CCN(C(=O)Nc2ccc3nc(C)c(C)nc3c2)CC1 ?
Response given: 8.11

Challenge: May I ask what inhibition has been recorded for O=C(CNCCC1=CCCCC1)Nc1ccccc1N1CCCCC1 ?
Response given: 7.21

Challenge: May I ask what inhibition has been recorded for Cc1c(C(=O)NCc2ccccn2)oc2ccccc12 ?
Response given: -29.5

Challenge: May I ask what inhibition has been recorded for COc1ccccc1OCCNC(=O)c1cccs1 ?
Response given: -16

Challenge: May I ask what inhibition has been recorded for COc1ccc(C(=O)NC(=O)CSc2nnc(-c3ccco3)n2-c2ccccc2)cc1 ?
Response given: 5.3

Challenge: May I ask what inhibition has been recorded for COc1ccc(-c2nnc(SCC#N)o2)cc1 ?
Response given: -8.24

Challenge: May I ask what inhibition has been recorded for CC(Oc1ccc(Br)cc1)C(=O)N1CCc2ccccc21 (configuration not stated) ?
Response given: -4.76

Challenge: May I ask what inhibition has been recorded for Cc1ccc(N(C(=O)c2ccncc2)C2C=CS(=O)(=O)C2)cc1 (configuration not stated) ?
Response given: -4.78

Challenge: May I ask what inhibition has been recorded for O=C(Cc1nc2ccccc2s1)c1ccc(O)cc1O ?
Response given: -33.1

Challenge: May I ask what inhibition has been recorded for CC(=O)c1ccc(Oc2cc(C)nc(-n3nc(C)cc3C)n2)cc1 ?
Response given: -4.86

Challenge: May I ask what inhibition has been recorded for Cc1ccc2cc(C(c3nnnn3CC3CCCO3)N3CCc4ccccc4C3)c(=O)[nH]c2c1 (configuration not stated) ?
Response given: 14

Challenge: May I ask what inhibition has been recorded for CC(C)(C)c1ccc(C(=O)N2CCC(C(=O)NCc3ccncc3)CC2)cc1 ?
Response given: -14.5

Challenge: May I ask what inhibition has been recorded for Nc1sccc1C(=O)c1ccccc1 ?
Response given: -12.1

Challenge: May I ask what inhibition has been recorded for COc1ccc(-c2noc(CSc3nc4ccccc4c(=O)n3-c3ccccc3)n2)cc1OC ?
Response given: 23.5

Challenge: May I ask what inhibition has been recorded for C1CCN=C(Nc2nc3c(s2)CCCC3)CC1 ?
Response given: -23.9

Challenge: May I ask what inhibition has been recorded for Cc1ccc(-c2cc(C(F)F)nc(N3CCC(C)CC3)n2)cc1 ?
Response given: 4.72

Challenge: May I ask what inhibition has been recorded for O=c1c2c3c(sc2n2cnnc2n1CCc1ccccc1)CCCC3 ?
Response given: 2.46

Challenge: May I ask what inhibition has been recorded for CCN1CCN(C(=O)c2cn(CCOC)c(=O)c3c2c2ccccc2n3C)CC1 ?
Response given: 6.11

Challenge: May I ask what inhibition has been recorded for Cc1csc2nc3ccccc3c(=O)n12 ?
Response given: 4.9

Challenge: May I ask what inhibition has been recorded for Cc1ccc2nc(-c3ccc(S(=O)(=O)N4CCOCC4)cc3)cn2c1 ?
Response given: 5.63

Challenge: May I ask what inhibition has been recorded for CCC(=O)Oc1ccc(C/C(=N\O)c2ccc(O)cc2O)o1 ?
Response given: -8.2

Challenge: May I ask what inhibition has been recorded for COCC(C)NC(=O)CCS(=O)(=O)c1nc(-c2ccc(OC)cc2)cc(C(F)(F)F)n1 (configuration not stated) ?
Response given: 17.7

Challenge: May I ask what inhibition has been recorded for CCc1cccc(NC(=O)CN(C)S(=O)(=O)c2cccc3nsnc23)c1 ?
Response given: 10.2

Challenge: May I ask what inhibition has been recorded for O=C(NCc1cccs1)C1CC(c2ccccc2O)=NO1 (configuration not stated) ?
Response given: 12.7

Challenge: May I ask what inhibition has been recorded for O=C(O)c1ccc2noc(-c3ccccc3)c2c1 ?
Response given: -20.8

Challenge: May I ask what inhibition has been recorded for C=CCSc1nnc(-c2cccnc2)o1 ?
Response given: 1.31

Challenge: May I ask what inhibition has been recorded for CC(=O)Nc1cccc(NC(=O)CSc2nnnn2C)c1 ?
Response given: 21.2

Challenge: May I ask what inhibition has been recorded for COc1ccc2cc(C(c3nnnn3C(C)(C)C)N3CCc4ccccc4C3)c(=O)[nH]c2c1 (configuration not stated) ?
Response given: 24.2

Challenge: May I ask what inhibition has been recorded for Cn1cc(Cl)c(C(=O)N(Cc2ccccc2)c2ccccn2)n1 ?
Response given: -18.3

Challenge: May I ask what inhibition has been recorded for NC(=O)CSCc1ccc(Br)cc1 ?
Response given: 11.5

Challenge: May I ask what inhibition has been recorded for CCn1c(=O)cc(SCC(=O)NCCN2CCN(Cc3ccccc3)CC2)c2ccccc21 ?
Response given: 16.8

Challenge: May I ask what inhibition has been recorded for Nc1c(C(=O)NCc2ccco2)nnn1Cc1ccccc1 ?
Response given: 8.14

Challenge: May I ask what inhibition has been recorded for O=C(c1cccc2c1C(=O)N(Cc1cccnc1)C2)N1CCN(c2ccccc2)CC1 ?
Response given: 13.7

Challenge: May I ask what inhibition has been recorded for Cc1cc(=O)oc2cc(OCC(=O)OCC(=O)N3CCc4ccccc43)ccc12 ?
Response given: 11

----------
- assay overview: inhibitors of TNFa-induced NFkB p65 translocation, primary screen, imaging, HUVEC, MLSMR starter and 10KST1 sets (AID 438);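 further: compound added about 3h40 before a 20 min TNFalpha stimulation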
- condition set: HUVEC TNFa-induced p65 nuclear translocation; measured here: nuclei count (cytotoxicity indicator), at 2.08 µM
Decide using cell count: a value greater than or equal to 400 is yes (1), a smaller one is no (0).

Challenge: Dear colleague, could you confirm whether COc1cc(C2=NOC(C(=O)NCc3ccc(F)cc3)C2)cc(OC)c1OC (configuration not stated) has cell count at or above 400?
Response given: yes (1)

Challenge: Dear colleague, could you confirm whether Cc1cccc(NC(=O)CC2CCC2)c1 has cell count at or above 400?
Response given: no (0)

Challenge: Dear colleague, could you confirm whether CN(C(=O)C1CCOC1)c1nnc(-c2cccnc2)s1 (configuration not stated) has cell count at or above 400?
Response given: yes (1)

Challenge: Dear colleague, could you confirm whether CCN1CCN(c2nc3c(c(=O)n(C)c(=O)n3C)n2CCSc2ncccn2)CC1 has cell count at or above 400?
Response given: no (0)

Challenge: Dear colleague, could you confirm whether COC(=O)COc1nc(C)c(Br)c(OC)n1 has cell count at or above 400?
Response given: no (0)

Challenge: Dear colleague, could you confirm whether O=C(NCc1ccco1)c1c2c(nc3ccccc13)CCC2 has cell count at or above 400?
Response given: no (0)

Challenge: Dear colleague, could you confirm whether COc1cccc(OCC(O)CN2CCN(CCO)CC2)c1 (configuration not stated) has cell count at or above 400?
Response given: no (0)
